test summary: yeast display, Sf9 membrane polyspecificity reagent, FACS + sequencing; frameworks hold sequencing errors

sequence text	polyreactivity (PSR sort gate)
QVQLVESGGGLVQAGGSLRLSCAASGSTFSYNAMGCYRQAPGKESELVAAISRGDVSTYYADSVKGRFTISRDNAKNTVYLQMNSLKPEDTAVYYCAAYWYGSQYKWRYDYWGQGTQVTVSS	low polyreactivity
QVQLVESGGGLVQAGGSLRLSCAASGFTFGRYAMGWYRQAPGKERELVAAITWSGGTTTYYADSVKGRFTISRDNAKNTVYLQMTSLKPEDTAVYYCAADLYFYIYSYNYWGQGTQVTVSS	low polyreactivity

---

test summary: yeast display, Sf9 membrane polyspecificity reagent, FACS + sequencing; frameworks hold sequencing errors

sequence text	polyreactivity (PSR sort gate)
QVQLVESGGGLVQAGGSLRLSCAASGRIFDIYGMGWYRQAPGKERELVAAITSGGSTYYADSVKGRFTISRDNAKNTVYLQMNSLKPEDTAVYYCAADSVLLKDTGYDYWGQGTQVTVSS	low polyreactivity
QVQLVESGGGLVQAGGSLRLSCAASGSTFYSYVIGWYRQAPGRESELVAVITSGGSTTYADSVNGRFTISRDNAKNTVYLEMNSLIPEDTAVYYCNAAYYNTDTQKVTFDYWGQGTQVTVSS	low polyreactivity

---

test summary: yeast display, Sf9 membrane polyspecificity reagent, FACS + sequencing; frameworks hold sequencing errors

sequence text	polyreactivity (PSR sort gate)
QVQLVESGGGLVQAGGSLRLSCAASGIIFGTNAMGWYRQAPGKERELVASITSDGSTYYADSVKGRFTISRDNAKNTVYLQMNSLKPEDTAVYYCAADHYWADGVYLYDTYEYGYWGQGTQVTVSS	low polyreactivity
QVQLVESGGGLVQAGGSLRLSCADSGLIFTQYAMGWYIQAPGKEREFVAAITWNGGRTYYADSVKGRFTISRDNAKNTVYLQMNSLKPEDTAVYYCATRNTRFHLDYWGQGTQVTVSS	high polyreactivity
QVQLVESGGGLVQAGGSLRLSCAASGSIFQFYAMGWYRQAPGKERELVAVITTSGVSTYYADSVKGRFTISRDNAKNTVYLQMNSLKPEDTAVYYCAADDYYLAGDYWGQGTQVTVSS	low polyreactivity
QVQLVESGGGLVQAGGSLRLSCAASGRTFEINAMGWYRQAPGKERELVAAITVSGGSTYYADSVKGRFTISRDNAKNTVYLQMNSLKPEDTAVYYCAVEIDYGQGKEVNSWGQGTQVTVSS	low polyreactivity
QVQLVESGGGLVQAGGSLRLSCAASGSTFRVNDMGWYRQAPGKESEFVAGISWSGGSTYYADSVKGRFTISRDNAKNTVYLQMNTLKPEETAVYYCAADGYGQGNNRNYNYGGQGTQVTVSS	low polyreactivity
QVQLVESGGGLVQAGGSLRFSCAASGSTFTTNVMGWYRQAPGKERELVAAISWSSGSTYYADSVKGRFTISRDNAKNTVYLQMNSLKPEDTAVYYCAARLVIFYPYSRYYYWGQGTQVTVSS	high polyreactivity
QVQLVESGGGLVQAGGSLRLSCAASGSTFEGNAMGWYRQAPGKERELVAAINSVAITNYADSVKGRFTISRDNAKNTVYLQMNSLKPEDTAVYYCNAQTNRPWGWPIGYDYWGQGTQVTVSS	low polyreactivity
QVQLVVSGGGLVHAGGSLRLSCAASGNTIFYYDLGGYIQAPGKERELVADITSRGTRTYYADSVKGRFTISRDKAKNTVYLQMNSLKPEDTAVYYCNKARGVAYDWGQGTQVTVSS	high polyreactivity
QVQHVESGGGLVQAGGSLRLSCAASGSTFDYNAMGWYRQAPGKERELVAAISFIGGATDYADCVKGRFTISRDNAKNTVYLLMNSLKPEDSGVYYCAADTTSVKDGTFYSWGQGTQVTVSS	low polyreactivity
QVQLVESGGGLVQAGGSLRLSCASSGRIFGIYAMGWYRQAPGKESELVARITGGGSTNYADSVKGRFTISRDNAKNTVYLQMNSLKPEDTAVYYCAATVRRIVGNITRYDYWGQGTQVTVSS	low polyreactivity
QVQLVESGGGLVQAGGSLRLSCAASGSTFDGYAMGWYRQAPGKERELVAAISRSGGRTYNADSVKGRFTISRDYAKNTVYLQMNSLKPEDTAVYYCAAYKPRPQYTDDDYWGQGTQVTVSS	high polyreactivity
QVQLVESGGGLVQAGGSLRLSCAASGSTFFQYAMGWYRQAPGKERELVAAITSGGSTNYADSVKGRFTISRDNAKNTVYLQMNSLKPEDTAVYYCAAESKSGAFDYWGQGTQVTVSS	low polyreactivity
QVQLVESGGGLVQAGGSLRLSCAASGRIFLGYAMGWYRQAPGKERELVAAISRSGGRTYYADSVKGRFTISRDNAKNTVYLQMNRLKPEDTAVYYCAARALYPLGYDYWGQGTQVTVSS	high polyreactivity
QVQLVESGGGLVQAGGSLRLSCAASGLTFWRYTMGWYRPAPGKERELVAVITYRGGSTYYADSVKGRFTISRDYAKNTVYLQMNSLKPEDTAVYYCAAGLSTYGLTYDYWGQGTQVTVSS	high polyreactivity
QVQLVESGGGLVQSGGSLRLSCAASGSIFSAYAMGWYRQAPGKEREFVAAITRRGGNTYYADSVKGRFTISRDNAQNTVYLQMNSLKPEDSAVYYCAADAGGGPFDYWGQGTQVSVSS	low polyreactivity
QVQLVESGGGLVQAGGSLRLSCAASGSIFVSYAMGWYRQAPGKERELVAAISRSGGRTYYADSVKGRFTISRDNAKNTVYLQMNSLKPEDTAVYYCAADYTKSSSPWPGYYWGQGTQVTVSS	high polyreactivity
QVQLVESGGGLVQAGVSLRLSCAASGRTFGQYVMGWYRQAPGKERELVAAIRSGGSTYYADSVKGLFTISRDNAKNTVYIQLNSLKPEDTAVYYCNADSGPIDGRGGYWGQGTQVTVSS	low polyreactivity
QVQLVESGGGLVQAGGSLSLICADSGSSFYGYAMGWYRQAPGKERELVAAITSSGGSTYYADSVKGRFTISRDNAKNTVYLQMNSLKPEDTAVYYCAARGSLGGWGLRYYWGQGTQVTVSS	high polyreactivity
QVQLLESGGGLVQAGGSLRLSCAASGRTFTLYTMGWYRQAPGKERELVAAISARGGSTYYADSVKGRFTISRDNAKNTVYLQMNSLKPEDTAVYYCAAESNRLRYYYWGQGTQVTVSS	high polyreactivity
QVQLVESGGGLVQAGGSLRLSCAASGSIFHYYAMGWYRQAPGKERELVAAISWSGGRTNYADSVKGRFTISRDNAKNTVYLQMKSLKPEDTAVYYCAAGNSFSDRGHRVYFQYYYWGQGTLVTVSS	high polyreactivity
QVQLEESGGGLVQAGGSLRLSCAASGRIFAVNAMGGYRQAPGKERELVAAINGGGSTNYADSVKGRFTLSRDNAKNTVYLQMNSLKPADTAVYYCAADVGWRSQTRGYYWGQGTQVTVSS	high polyreactivity

---

test summary: yeast display, Sf9 membrane polyspecificity reagent, FACS + sequencing; frameworks hold sequencing errors

sequence text	polyreactivity (PSR sort gate)
QVQLVDSGGGLVQAGGSLRLTCAASGRTFRYNAMGWYRQAPGKERDLVARISRGGSPYADSVKGRFTISRDNAKNTVYLQMNSLKPEDSAVYYCAADPTKHNQSEYYYWGQGTQVNVSS	low polyreactivity
QVQLVESGGGLVQAGGSLRLSCAASGRTFRLYAMGWSRQAPGKERELVAAITRGGRTNYADSVKGRFTISRDNAKTTVYLQMTSLKPEDTAVYYCAARYVERHTDYYYWGQGTQVTVSS	low polyreactivity
QVQLVESGGGLVQAGGSLRLSCAASGRTFKYNAMGWYRQAPGKERELVAAISSTGSTNYADSVKGRFTISRDNAKNTVYLQMNSLKPEDTAVYYCAASYFFVQWGWYYYWGQGTQVTVSS	low polyreactivity
QIQLVESGGGIVQAGGSLRLSCAASGFIFNTYDMGWYRQAPGKEMELVAVITSGGTTNYADSVKGRFTISRDNAKNTVYLQINCLKPEDTAVYSCNRDSVLDPGNPKPYVFDYWGQGTQVTVSS	low polyreactivity
QVQLVESGGGLVQAGGSLRLSCAASGRIYGKYAMGWSRQAPGKERELVASISYSGGSTYYADSVKGRFTISRDNAKNTVYLHMISLKPEDTAVYYCAARKWRYGRYVYWGQGTQVTVSS	high polyreactivity
QVQLVESGGGLVHAGGSLRLSCAASGFSFNTYAMGWYRQAPGKERELVADISSGGSTNYADSVKGRFTISRDNAKNTVFLQMNSLKPEDTAVYYCSADYYFLDWYDYWGQGTQVSVSS	low polyreactivity
QFQLVQSGGGLVQAGGSLRLSCAASGFILEPNAVGWYRQAPGKERELVATISYSGGGTYYADSVKGRFTISRDNAKNTVYLQLNCLKPEDTAVYYCAVDWYYYVWWYDYWGQGTHVTVSS	high polyreactivity
QVQLVESGGGLVQAGGSLRLSCAASGSIFALYAMGWYRQAAGKERELVAAITKGGGSTYYADSVKGRFTISRDNAKNTVYLQMNSLKPEDTAVYYCAARGRYSAPDYGYWGQGTQVTVSS	high polyreactivity
QGQLVESGGGLVQAGGSLRLSCAASGSIFYRNAMGWYRQAPGKERELVAAISYSGGSTYYADSVKGRFTISRDNAKNTVYLQMNSLKPEDTAVYYCAKDYPTPISDYSRYYGYGYWGQGTQVTVSS	low polyreactivity
QVQLVESGGRLVQAGGSLRLSCAASGSTFHSYVMGWYRQAPGKERELVAAITSRGGSTNYADSVKGRFTISRDNAKNTVYLKMNSLIPEDTAVYYCAADCYWGWSYFRYDYWGQVTQVTVSS	low polyreactivity
QVQLVESGGGLVQAGGSLRLSCAASGSIFSYYAMGWYRQAPGKERELVAGISISTGSTYYADSVKGRFTISRDNAKNTVYLQMNSLKPEDNAVYYCAAAQDDGYSQDIYYQLSAYDYWGQGTQVTVSS	low polyreactivity
QVQLVESGGGLVQAGGILRLSCAASGSTFPGYAMGWYRQAPGKERELVAAISGNGVITYYADSVKGRFTISRDNAKNTVYLQMNSLKPEDTAVYYCNADRLYWGGYYGLTYWGQGTQVTVSS	low polyreactivity
QVQLVESGGGLVQAGGSLRLSCAASGSIFRGYAMGWYRPAPGKERELVAAISSSGGTTYYADSVKGRFTISRDNAKNTVYLQMNSLKPEDTAVYYCNARHPYTGGRRYPYTRYDYWGQGTQVTVSS	high polyreactivity
QVQLVESGGGLVQAGGSLRLSCAASGFTFSYYAMGWYRQAPGKERELVAAISWSGGSTYSADSVKGRFTISRDNAKNTVYLQMNSLKPEDTAVYYCAAEVYFLATGTWYDYWGQGTQVTVSS	high polyreactivity
QVQLVESGGGLVQAGGSLRLSCAASGSTFSWYAMGWYRQAPGKERELVAAITSGGSTQYADSVKGRFTISRDNAKNTVYLQMNSLKPEDTAVYYCATRRYKWGVRYDYWGQGTQVTVSS	high polyreactivity
QVQLVESGGGLVQAGGTLRLSCAASGMTFSRNGMGWYRQAPGKEREVVADISYRGGRTYYADSVKGRFTFSRDNAKNTVYLQMHSLKPEDTAVYYCNAVFLVGVGPTSDYWGQRTQVTVSS	high polyreactivity
QVQLVESGGGLVQAGGSLRLCCAASGSTFYYYAMGWYRQAPGKVRELVASITTGGGSTYYADSVKGRFTISRDNAKNTVYLQMNSLKPEDTAVSYCAAALAYYYWWYDYWGQGTQVTASS	low polyreactivity
QVHLVESGGGLVQAGGSLRLSCAASGIIFDEYAMGWYSQAPGKERELVAAINWSGGITYYADSVKGRFTISRDNAKNTVYLQMNSLKPEDTAVYYCNKDPLVFDYWGQGTQVTVSS	low polyreactivity
QVQLQESGGCLVQAGGSLRLSCAASGTNSDSGLMGWYRQAPGKERELVAGISSGGITTYADSVKGRFTISRDNAKNTVYLQMNSLKPEDTAVYWGQGTQVTVSC	low polyreactivity
QVQLVESGGGLVQAGGSLRLSCAASGRTFVTNAMGWYRPAPGKERELVPAISSNGGSTYYADSVKGRFTISRDTAKNTVYLQMNSLKPEDTAVYYCNAEGQPLYWWDHGNYWGQGTQVTVSS	low polyreactivity
QVQLVESGGGLVQAGGSLRLSCAASGFISPGYAMGWYRQAPGKERELVAAISVNGGDTYYADSVKGRFTISRDNAKNTVYLQMYSLKPEDTAVYYCAAERGVDDSARYGDYDYWGQGTQVTVSS	low polyreactivity
